Assay: Two-period crossover pharmacokinetics of nalmefene 3 mg IN vs 1.0 mg IM (Example 12)
Details: human, plasma, other: intranasal, 3 mg, Cmax, GeoMean, Treatment A 3.0 mg IN (Test)
MEASUREMENT TYPE: Cmax (ng/mL)
Answers are plain numbers, in ng/mL.

Incoming: Please give the measured Cmax for this molecule: `C=C1CC[C@@]2(O)[C@H]3Cc4ccc(O)c5c4[C@@]2(CCN3CC2CC2)[C@H]1O5`
Outgoing: 10.3

---

Experiment: Three-treatment crossover pharmacokinetics of IN nalmefene, three dosing regimens (Example 13)
Conditions: human, plasma, other: intranasal (IN spray), 6 mg, […], Median; Time 0.0833; T3: 6 mg nalmefene HCl IN, two 0.1 mL sprays in one nostril
MEASUREMENT TYPE: concentration at […]
Answer format: value, then unit.

Incoming: concentration at […] lookup needed for C=C1CC[C@@]2(O)[C@H]3Cc4ccc(O)c5c4[C@@]2(CCN3CC2CC2)[C@H]1O5 [Nalmefene] , thanks.
Outgoing: 2.58 ng/mL

---

Test: Two-period crossover pharmacokinetics of nalmefene 3 mg IN vs 1.0 mg IM (Example 12)
Details: human, plasma, im, 1 mg, Vz/F, Treatment B: IM 1.0 mg nalmefene hydrochloride; plasma; Geo. Mean, n=68
MEASUREMENT TYPE: Vd/F (L)
One number for each entry, in L.

Incoming: Can you share its Vd/F? I mean this compound: C=C1CC[C@@]2(O)[C@H]3Cc4ccc(O)c5c4[C@@]2(CCN3CC2CC2)[C@H]1O5 [Nalmefene]
Outgoing: 894

---

Test: Phase 1 pharmacokinetic evaluation of nalmefene IN with and without Intravail vs IM injection
Settings: human, in vivo, 3 mg
MEASUREMENT TYPE: concentration at 48 h (ng/mL)
Give bare numbers, in ng/mL.

Incoming: What value of measured concentration at 48 h is listed for `C=C1CC[C@@]2(O)[C@H]3Cc4ccc(O)c5c4[C@@]2(CCN3CC2CC2)[C@H]1O5` ?
Outgoing: 0

---

Assay: Two-period crossover pharmacokinetics of nalmefene 3 mg IN vs 1.0 mg IM (Example 12)
Details: human, plasma, other: intranasal, 3 mg, AUC0-20 min, Treatment A: 3.0 mg nalmefene hydrochloride IN; plasma; Mean, n 66
MEASUREMENT TYPE: AUC(0-t) (ng·h/mL)
Answers are plain numbers, in ng·h/mL.

Incoming: What value of AUC(0-t) has been recorded for this entry: C=C1CC[C@@]2(O)[C@H]3Cc4ccc(O)c5c4[C@@]2(CCN3CC2CC2)[C@H]1O5 [Nalmefene]
Outgoing: 2.34

---

Assay: Three-treatment crossover pharmacokinetics of IN nalmefene, three dosing regimens (Example 13)
Conditions: human, plasma, other: intranasal (IN spray), 6 mg, […], Mean; Time 2.00; T3: 6 mg nalmefene HCl IN, two 0.1 mL sprays in one nostril
MEASUREMENT TYPE: concentration at 2 h (ng/mL)
Give bare numbers, in ng/mL.

Incoming: Field request: concentration at 2 h | item: `C=C1CC[C@@]2(O)[C@H]3Cc4ccc(O)c5c4[C@@]2(CCN3CC2CC2)[C@H]1O5`
Outgoing: 8.86

---

Test: Three-treatment crossover pharmacokinetics of IN nalmefene, three dosing regimens (Example 13)
Settings: human, plasma, other: intranasal (IN spray), 6 mg, […], Mean; Time 0.166; T3: 6 mg nalmefene HCl IN, two 0.1 mL sprays in one nostril
MEASUREMENT TYPE: concentration at […] (ng/mL)
Give bare numbers, in ng/mL.

Incoming: What does the data say about its concentration at […]? Entry: `C=C1CC[C@@]2(O)[C@H]3Cc4ccc(O)c5c4[C@@]2(CCN3CC2CC2)[C@H]1O5`
Outgoing: 14.1
